Parameter IC50, tested on Vascular endothelial growth factor receptor 2 (Homo sapiens), listed per item.
Sequence (P35968 whole entry): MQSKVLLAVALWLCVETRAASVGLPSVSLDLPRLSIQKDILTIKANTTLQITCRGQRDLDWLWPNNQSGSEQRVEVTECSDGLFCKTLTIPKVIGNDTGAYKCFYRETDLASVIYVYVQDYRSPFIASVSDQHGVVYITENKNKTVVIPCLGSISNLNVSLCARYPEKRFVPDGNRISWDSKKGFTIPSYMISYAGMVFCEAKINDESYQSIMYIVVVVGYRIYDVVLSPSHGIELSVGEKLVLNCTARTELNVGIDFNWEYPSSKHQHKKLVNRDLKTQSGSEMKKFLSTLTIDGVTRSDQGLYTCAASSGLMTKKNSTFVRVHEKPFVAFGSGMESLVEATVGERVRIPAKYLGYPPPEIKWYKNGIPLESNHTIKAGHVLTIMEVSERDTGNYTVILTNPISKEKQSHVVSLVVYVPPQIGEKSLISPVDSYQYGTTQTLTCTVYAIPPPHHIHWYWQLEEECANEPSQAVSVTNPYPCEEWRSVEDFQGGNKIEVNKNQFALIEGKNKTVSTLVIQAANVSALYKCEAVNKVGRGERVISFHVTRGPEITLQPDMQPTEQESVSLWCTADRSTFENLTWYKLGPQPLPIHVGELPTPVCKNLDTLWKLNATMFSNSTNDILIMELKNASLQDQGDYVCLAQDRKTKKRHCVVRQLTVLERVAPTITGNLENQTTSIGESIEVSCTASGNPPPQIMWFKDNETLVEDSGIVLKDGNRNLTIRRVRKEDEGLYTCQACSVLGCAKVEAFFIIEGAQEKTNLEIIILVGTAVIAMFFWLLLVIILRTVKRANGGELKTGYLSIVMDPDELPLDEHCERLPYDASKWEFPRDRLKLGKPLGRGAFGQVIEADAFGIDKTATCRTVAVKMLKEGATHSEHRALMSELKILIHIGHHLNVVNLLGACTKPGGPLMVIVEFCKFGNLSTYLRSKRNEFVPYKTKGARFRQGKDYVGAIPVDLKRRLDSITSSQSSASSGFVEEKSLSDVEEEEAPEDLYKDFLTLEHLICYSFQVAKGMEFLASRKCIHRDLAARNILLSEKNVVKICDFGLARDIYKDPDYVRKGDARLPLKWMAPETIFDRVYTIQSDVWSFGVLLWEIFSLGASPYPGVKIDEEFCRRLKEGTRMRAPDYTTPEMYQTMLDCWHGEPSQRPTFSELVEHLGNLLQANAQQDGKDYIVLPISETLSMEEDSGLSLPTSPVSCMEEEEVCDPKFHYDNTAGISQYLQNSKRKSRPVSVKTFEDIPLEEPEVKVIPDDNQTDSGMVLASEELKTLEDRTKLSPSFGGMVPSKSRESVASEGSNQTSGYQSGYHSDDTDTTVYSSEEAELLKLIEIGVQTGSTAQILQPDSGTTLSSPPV
// return numeric value only (unit: µM, not printed)

>>> recorded_value("COc1cc(Cn2ccc3c(Nc4cccc(Br)c4)nc(N)nc32)cc(OC)c1OC")
25.7
>>> recorded_value("Nc1nc(Nc2cccc(Br)c2)c2ccn(Cc3cccc4ccccc34)c2n1")
14.9
>>> recorded_value("Nc1nc(Nc2cccc(Br)c2)c2ccn(Cc3ccccc3Cl)c2n1")
17.9
>>> recorded_value("Cc1ccccc1Cn1ccc2c(Nc3cccc(Br)c3)nc(N)nc21")
113
>>> recorded_value("Nc1nc(Nc2cccc(Br)c2)c2ccn(Cc3ccc(Cl)c(Cl)c3)c2n1")
64.5

Incoming: # input molecule: Nc1nc(Nc2cccc(Br)c2)c2ccn(Cc3ccc(Cl)cc3)c2n1 ; wanted: its IC50
Outgoing: 65.3

Incoming: # input molecule: Nc1nc(Nc2cccc(Br)c2)c2ccn(Cc3ccccc3)c2n1 ; wanted: its IC50
Outgoing: 23.8

Incoming: # input molecule: Nc1nc(Nc2cccc(Br)c2)c2ccn(Cc3ccc4ccccc4c3)c2n1 ; wanted: its IC50
Outgoing: 22.9

Incoming: # input molecule: Nc1nc(Nc2cccc(Br)c2)c2ccn(Cc3ccc(-c4ccccc4)cc3)c2n1 ; wanted: its IC50
Outgoing: 22.9

These data points were gathered from ChEMBL document CHEMBL1955729.
